The values you see were collected from patent US20220087987A1.

- experimentNotes: Drug library screen, cell viability (CellTiter-Glo)
- Type: cell-based, human
- assaySetup: human; HCT116 ARID1A-WT; 10 μM for 5 days; relative to cells treated with solvent (DMSO); read-out: Cell viability, WT
Structures can show the parent of a compound that is named as a salt.
Each entry below carries its reported viability at 5 days, 10 μM.
measurementName: viability at 5 days, 10 μM (%)

{"molecule": "OC[C@H]1NC[C@H](O)[C@@H](O)[C@@H]1O", "reported": 106}
{"molecule": "CO[C@H]1C[C@@H]2CC[C@@H](C)[C@@](O)(O2)C(=O)C(=O)N2CCCC[C@H]2C(=O)O[C@H]([C@H](C)C[C@@H]2CC[C@@H](OC(=O)C(C)(CO)CO)[C@H](OC)C2)CC(=O)[C@H](C)/C=C(\\C)[C@@H](O)[C@@H](OC)C(=O)[C@H](C)C[C@H](C)/C=C/C=C/C=C/1C", "reported": 82.1}
{"molecule": "COc1cc2nc(N3CCCN(C)CC3)nc(NC3CCN(Cc4ccccc4)CC3)c2cc1OC", "reported": 2.57}
{"molecule": "CC[C@]1(O)C[C@@H]2CN(CCc3c([nH]c4ccccc34)[C@@](C(=O)OC)(c3cc4c(cc3OC)N(C)[C@H]3[C@@](O)(C(=O)OC)[C@H](OC(C)=O)[C@]5(CC)C=CCN6CC[C@]43[C@@H]65)C2)C1 [Vinblastine sulfate]", "reported": 2.73}
{"molecule": "O=C1Cc2c([nH]c3ccc(Br)cc23)-c2ccccc2N1", "reported": 66.2}
{"molecule": "COc1cc2ncnc(Nc3ccc(F)c(Cl)c3)c2cc1OCCCN1CCOCC1", "reported": 54.5}
